Target: TRPML1 (Homo sapiens, UniProt Q9GZU1)
Sequence (Q9GZU1 whole entry L15A/L16A/L577A/L578A, form open): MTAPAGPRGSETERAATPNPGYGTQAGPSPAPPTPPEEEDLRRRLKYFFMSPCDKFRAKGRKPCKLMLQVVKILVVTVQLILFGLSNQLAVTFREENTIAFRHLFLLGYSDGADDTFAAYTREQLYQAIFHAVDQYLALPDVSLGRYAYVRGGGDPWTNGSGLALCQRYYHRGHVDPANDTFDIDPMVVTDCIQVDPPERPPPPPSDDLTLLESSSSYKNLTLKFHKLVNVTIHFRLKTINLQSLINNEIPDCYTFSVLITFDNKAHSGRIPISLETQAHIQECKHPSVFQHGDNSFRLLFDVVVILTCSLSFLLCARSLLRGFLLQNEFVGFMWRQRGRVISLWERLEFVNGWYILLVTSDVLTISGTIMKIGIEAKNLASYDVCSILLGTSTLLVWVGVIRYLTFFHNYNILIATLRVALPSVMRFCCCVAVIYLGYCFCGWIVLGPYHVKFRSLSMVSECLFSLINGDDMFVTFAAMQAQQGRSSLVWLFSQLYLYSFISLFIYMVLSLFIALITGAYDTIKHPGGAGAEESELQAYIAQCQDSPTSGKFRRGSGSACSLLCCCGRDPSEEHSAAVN
Assay: Fluorescent TRPML1 assay (Fluo4-AM calcium fluorescence in doxycycline-induced HEK-293 Trex cells)
Assay type: cell-based
MEASURED_ATTRIBUTE: EC50

Example results:
[[record]]
smiles = "Cc1cn(-c2cccc(F)c2)c2ncnc(N3C[C@@H](C)N(C(=O)OC(C)(C)C)C[C@@H]3C)c12"
measured_attribute = "EC50"
assay_value = "< 100 nM"

[[record]]
smiles = "C=CCOC(=O)N(CCC)c1cn(-c2cc(Cl)ccn2)c2ncnc(N3C[C@@H](C)N(C(=O)OC(C)(C)C)C[C@@H]3C)c12"
measured_attribute = "EC50"
assay_value = "100 to 500 nM"

[[record]]
smiles = "C[C@@H]1CN(c2ncnc3c2c(C2CCC2)cn3-c2cccc(C(F)(F)F)c2)[C@@H](C)CN1C(=O)OC(C)(C)C"
measured_attribute = "EC50"
assay_value = "100 to 500 nM"


# input molecule: C[C@@H]1CN(c2ncnc3c2c(CC(F)(F)F)cn3-c2nccc(C#N)n2)[C@@H](C)CN1C(=O)OC(C)(C)C ; wanted: its EC50
< 100 nM

# input molecule: COc1ccnc(-n2cc(C3CC3)c3c(N4C[C@@H](C)N(C(=O)OC(C)(C)C)C[C@@H]4C)ncnc32)c1 ; wanted: its EC50
100 to 500 nM

# input molecule: C[C@@H]1CN(c2ncnc3c2c(C2CC2)cn3-c2cccc(F)c2)CCN1C(=O)OC(C)(C)C ; wanted: its EC50
< 100 nM
